- tested.system: CRBN truncate (318-426) (Homo sapiens (Human))
- Sequence (Q96SW2 318-426): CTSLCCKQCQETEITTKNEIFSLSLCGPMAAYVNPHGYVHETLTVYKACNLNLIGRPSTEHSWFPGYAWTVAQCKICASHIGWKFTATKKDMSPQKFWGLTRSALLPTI
- assay: Measurement of molecular interactions using surface plasmon resonance (SPR), Biacore T200
- run.parameters: 25° C., immobilized CRBN truncate, upper limit of measurement 200 μM
pKd: −log10 of the molar value.
metric.name: pKd

### Prompt Recorded pKd for Cc1sc2c(c1C)C(c1ccc(Cl)cc1)=N[C@@H](CC(=O)NCCCCCCCCNC(=O)CN1CC3(CC(=O)N(C4CCC(=O)NC4=O)C3=O)C1)c1nnc(C)n1-2 (stereo partly drawn) , please?
### Response > 4.30

### Prompt Recorded pKd for Cc1sc2c(c1C)C(c1ccc(Cl)cc1)=N[C@@H](CC(=O)NCCCCCCCCNC(=O)COc1ccc(C#N)c(N3CCC4(CCCC(=O)NC4=O)C3)c1)c1nnc(C)n1-2 (stereo partly drawn) , please?
### Response > 4.30

### Prompt Recorded pKd for CC(C)(C)OC(=O)C(C)(C)N1CC2(CC(=O)N(C3CCC(=O)NC3=O)C2=O)C1 (stereo not drawn) , please?
### Response ≤ 4.00

### Prompt Recorded pKd for O=C1CCCC(N2C(=O)OCc3cc([N+](=O)[O-])ccc32)C(=O)N1 (stereo not drawn) , please?
### Response ≤ 4.00

### Prompt Recorded pKd for Cn1c(=O)n(C2CCCC(=O)NC2=O)c2ccc(C3CCN(C(=O)OC(C)(C)C)CC3)cc21 (stereo not drawn) , please?
### Response 4.00 to 4.30

### Prompt Recorded pKd for CN1C(=O)C(C)(N2C=CCC(=O)NC2=O)c2ccc(/C=C/C(=O)OC(C)(C)C)cc21 (stereo not drawn) , please?
### Response > 4.30

### Prompt Recorded pKd for Cc1sc2c(c1C)C(c1ccc(Cl)cc1)=N[C@@H](CC(=O)NCCCCCCCCn1ccc3c(N4CC5(CC(=O)N(C6CCC(=O)NC6=O)C5=O)C4)ncnc31)c1nnc(C)n1-2 (stereo partly drawn) , please?
### Response > 4.30

### Prompt Recorded pKd for Cn1c(=O)n(C2CCCC(=O)NC2=O)c2cccc(-c3ccncc3)c21 (stereo not drawn) , please?
### Response 4.00 to 4.30

### Prompt Recorded pKd for CN(C1CCCC(=O)NC1=O)S(=O)(=O)c1ccc(Cl)cc1 (stereo not drawn) , please?
### Response ≤ 4.00

### Prompt Recorded pKd for O=C1CCCC2(CCN(C(=O)c3ccccc3)CC2)C(=O)N1 , please?
### Response ≤ 4.00

### Prompt Recorded pKd for CC(C)(C)OC(=O)c1cccc(N2CC3(CC(=O)N(C4CCC(=O)NC4=O)C3=O)C2)n1 (stereo not drawn) , please?
### Response 4.00 to 4.30

### Prompt Recorded pKd for Cc1ccc(NC(=O)NCc2ccc(C(=O)N3CCC4(CCCC(=O)NC4=O)C3)cc2)cc1Cl (stereo not drawn) , please?
### Response > 4.30

### Prompt Recorded pKd for O=C1CCCC(c2cccc([N+](=O)[O-])c2)C(=O)N1 (stereo not drawn) , please?
### Response ≤ 4.00

### Prompt Recorded pKd for COc1ccc2c(c1)nnn2C1CCCC(=O)NC1=O (stereo not drawn) , please?
### Response ≤ 4.00

### Prompt Recorded pKd for O=C1CCCC2(CCN(c3ccc([N+](=O)[O-])cc3Cl)C2)C(=O)N1 (stereo not drawn) , please?
### Response > 4.30
